System: M14 melanoma
procedure-summary: NCI tumour cell line growth inhibition, 48 h
As shown below, each of these compounds has a reported TGI value.

Previously resolved entries follow.
CC1(COS(=O)(=O)OCC2(C)COS(=O)(=O)OC2)COS(=O)(=O)OC1 = > 100 µM
Cc1ccc(S(=O)(=O)N=Nc2c(O)[nH]c3c(Cl)cc(Cl)cc23)cc1 = > 100 µM

Incoming: Form field: reported TGI of "S=c1nc(-c2cccnc2)[nH][nH]1"
Outgoing: > 100 µM

###

Measured TGI of individual entries
Test system: IGROV1 ovarian
procedure-summary: NCI tumour cell line growth inhibition, 48 h

O=S1(=O)c2ccccc2NC(=S)CC1c1ccccc1 (stereo unspecified) = > 100 µM

Incoming: If you can, please state the reported TGI value of CC(C)OP(=O)(OC(C)C)C(C(C)C)N(C)/C(F)=N/C(F)(F)F (stereo unspecified) .
Outgoing: > 100 µM

Incoming: Check "CC(=O)Nc1ccc(S(=O)(=O)NNC(=O)c2cccnc2Nc2ccc(Cl)cc2)cc1" too.
Outgoing: > 100 µM

Incoming: Consider next the molecule BrC1(Br)C2/C=C\CCCCC21 (stereo unspecified) in the same way.
Outgoing: > 100 µM

Incoming: Now consider "CCN(CCNc1ccc(C)c2sc3ccccc3c(=O)c12)CC(C)(C)O" and answer again.
Outgoing: 31.5 µM

Incoming: Further, for CCC(c1cccc(O)c1)C(CC)c1cccc(O)c1 (stereo unspecified) ?
Outgoing: 25.3 µM

###

Here the recorded TGI is given for each entry.
Test system: SK-OV-3 ovarian
procedure-summary: NCI tumour cell line growth inhibition, 48 h
Where a SMILES comes first, the peptide text is derived from it. The star is where a group is joined. Boc = CC(C)(C)OC(=O)*; OBn = c1ccc(CO*)cc1

Example molecules with recorded TGI:
O=c1[nH]c2cc3[nH]c4ncccc4c(=O)c3cc2[nH]1 = > 10 µM
CC(=O)Oc1ccc(C2COc3cc(OC(C)=O)c(OC(C)=O)cc3C2)cc1 (configuration not stated) = 38.7 µM
CC(C)(C)OC(=O)NC(Cc1ccccc1)C(=O)NC(Cc1ccccc1)C(=O)NCC(=O)OCc1ccccc1 (stereo not drawn) (Boc-Phe-Phe-Gly-OBn; configuration not given here) = 46 µM
NNC(=S)N1CCN(C(=S)NN)CC1 = > 100 µM

Incoming: Suppose we examine the molecule "CC(C)Oc1cc(O)c2c(c1)OCC=C2CCC(=O)O" ; what TGI value has been reported?
Outgoing: > 100 µM

Incoming: Similarly, N#CC(NNC(=O)c1ccccc1O)c1cccc(O)c1 (configuration not stated) ?
Outgoing: > 100 µM

Incoming: Now the molecule "CCCCOCn1c(=O)[nH]c(=O)c2cc(Br)ccc21"
Outgoing: > 100 µM

###

Entries and their TGI
Tested on: OVCAR-5 ovarian
procedure-summary: NCI tumour cell line growth inhibition, 48 h

Cc1c(-c2ccccc2)c(C#N)c2nnc(C(N)=O)c(N)n12 = > 100 µM
O=C1CCC(O)=C1O = > 100 µM

Incoming: Name the recorded TGI for "COc1c(C)c(OC)c2c(c1O)[C@@H]1[C@@H]3Cc4c(OC)c(C)c(OC)c(O)c4[C@H](CNC(=O)c4cnc5ccccc5n4)N3[C@@H](C#N)[C@H](C2)N1C" .
Outgoing: > 0.1 µM

###

System: EKVX NSCLC
procedure-summary: NCI tumour cell line growth inhibition, 48 h
endpoint-name: TGI

O=c1ccc(=O)c2c(=O)c3ccccc3c(=O)c1=2 = > 100 µM
Cc1c2ccc(N(C)c3ccnc(Nc4cccc(S(N)(=O)=O)c4)n3)cc2nn1C = > 25 µM

From here, focus on the item given below.
Incoming: Fill in: TGI of "Cc1sc2ccccc2[n+]1CCC(=O)O" is ___
Outgoing: > 100 µM

###

Recorded TGI values for a group of molecules are listed next.
Test system: SF-539 CNS
procedure-summary: NCI tumour cell line growth inhibition, 48 h

Example molecules with recorded TGI:
CC(=O)OCC=C(CCl)CCC(Br)C(C)(C)Br (mixture of isomers) = > 10 µM
OC12CC/C(=N/OCc3ccccc3)CC1c1ccccc12 (centres undefined) = > 100 µM
C[C@]12CC[C@@H]3c4ccc(O)cc4C(O)C[C@H]3[C@@H]1CCC2=O (some centres undefined) = > 100 µM

Incoming: Requested field: TGI. Item: "FCc1ncc(-c2ccc(C(F)(F)F)cc2)c(NC2CCCCCC2)n1"
Outgoing: > 10 µM

Incoming: What do we get for "Cn1nc(S(N)(=O)=O)s/c1=N/C(N)=S" ?
Outgoing: > 100 µM

Incoming: Let us now turn to "CC(C)CNC(=O)Cn1c(-c2ccccc2)cc2ccccc21"
Outgoing: > 100 µM

Incoming: // repeat for C=C(C)C1CC=C(C)C2(C1)OCC(C)(C)C(C)O2 (centres undefined) and report
Outgoing: 48 µM

Incoming: Another molecule to look at: "O=[N+]([O-])c1ccc2c(c1)[O][Sn]([I])([I])[O]2"
Outgoing: > 100 µM

Incoming: Field entry: "COc1cc(Cn2c(-c3nonc3N)nc3ccccc32)ccc1C"
Outgoing: 0.663 µM

Incoming: Now consider "Cc1cc(=O)oc2cc(O)ccc12" and answer again.
Outgoing: > 100 µM

Incoming: And the next one, "Cc1sc2ccccc2[n+]1CCC(=O)O" ?
Outgoing: > 100 µM

Incoming: Then what about the molecule "COc1c2cc(C(C)(C)C)cc1Cc1cccc(c1O)Cc1cc(C(C)(C)C)cc(c1OC)Cc1cccc(c1O)Cc1cc(C(C)(C)C)cc(c1OC)Cc1cccc(c1O)C2" ?
Outgoing: > 100 µM

Incoming: Input "COc1cc(/C=N/Nc2nnc3c4ccccc4c4ncccc4c3n2)cc(OC)c1OC"
Outgoing: > 10 µM

Incoming: Check "CC(C)(C)OC[C@H](O)CC#N" too.
Outgoing: > 100 µM

###

Test system: LOX IMVI melanoma
procedure-summary: NCI tumour cell line growth inhibition, 48 h; in the data active = GI50 below about 0.43 µM; inactive = the rest
Permitted responses: active, inactive

The following compounds have reported results that may help.
COC(=O)C1=C(C(=O)OC)SC(=C(Cl)C(=S)Sc2ccccc2N)S1 = inactive
COc1cc(Cn2c(-c3nonc3N)nc3ccccc32)ccc1C = inactive
CSc1ccc(/C=C2\C=C(CC(=O)NCc3ccc(C(=O)c4ccccc4)cc3)c3cc(F)ccc32)cc1 = active
CCN(CCNc1ccc(C)c2sc3ccccc3c(=O)c12)CC(C)(C)O = inactive
CCC(c1cccc(O)c1)C(CC)c1cccc(O)c1 (stereo unspecified) = inactive

Incoming: Dear colleague, could you share the recorded outcome for "CN(C)C(=O)O[C@@H]1CN[C@@H](C#Cc2cc3ncnc(Nc4ccc(OCc5cccc(F)c5)c(Cl)c4)c3s2)C1" when you have a moment?
Outgoing: inactive

###

Readings of TGI for the listed compounds
System: MDA-N
procedure-summary: NCI tumour cell line growth inhibition, 48 h
Respond with the bare value in µM.

Cc1cc(C)n(CN(Cn2nc(C)cc2C)C2CCCCC2)n1 = 34.8
COc1cc(C2SCC(=O)N2c2ccc(Oc3ccc(Cl)cc3)c(Cl)c2)cc(OC)c1OC (configuration not stated) = 45.1
C[C@]12CC[C@H](O)CC1=CC[C@@H]1[C@@H]2CC[C@]2(C)/C(=N/OCCN3CCCC3)CC[C@@H]12 = 34.3
COc1c(C)c(OC)c2c(c1O)[C@@H]1[C@@H]3Cc4c(OC)c(C)c(OC)c(O)c4[C@H](CNC(=O)c4cnc5ccccc5n4)N3[C@@H](C#N)[C@H](C2)N1C = 0.00362

Please examine the following record next.
Incoming: I have this compound here, Cc1ccc(N=Nc2c(C)c(C#N)c(=S)n(C3OC(CO)C(O)C(O)C3O)c2-c2ccccc2)cc1 (configuration not stated) , and I need its recorded TGI.
Outgoing: 71.7

###

Tested on: DU-145 prostate
procedure-summary: NCI tumour cell line growth inhibition, 48 h
Form field: TGI (one value per entry).

Incoming: Please provide the recorded TGI for COc1ccc(C2C(C#N)=C(S)N(C3OC(CO)C(O)C(O)C3O)C(c3ccccc3)=C2C(C)=O)cc1 (stereo unspecified) , tested on DU-145 prostate.
Outgoing: > 100 µM

Incoming: Can you check "O=c1[nH]c2cc3[nH]c4ncccc4c(=O)c3cc2[nH]1" next?
Outgoing: > 10 µM

Incoming: Next compound up: "Cn1c2ccccc2c2c3c(c4c5ccccc5n(C)c4c21)C(=O)c1ccccc1C3=O"
Outgoing: > 100 µM

Incoming: Now give it for "Cc1ccc(-c2n[nH]c(=O)[nH]2)cc1[N+](=O)[O-]" too.
Outgoing: > 100 µM

Incoming: "Cc1ccc(C(=O)/C(C#N)=C/Nc2c(C)n(C)n(-c3ccccc3)c2=O)cc1" , same question.
Outgoing: > 100 µM

Incoming: Same thing, different compound: C[N+](C)(C)c1ncnc2c1ncn2C1CCCCO1 (stereo unspecified)
Outgoing: > 100 µM

###

System: HT29 colon
procedure-summary: NCI tumour cell line growth inhibition, 48 h
endpoint-name: TGI

Record excerpt, results attached:
CN(C)CCNc1ncnc2nc(-c3ccc4ccccc4c3)[nH]c12 = > 100 µM
COc1ccc(OC)c2c1C1CCC(=O)N1CN2C(C)=O (stereo not drawn) = > 100 µM

Incoming: Query the reported TGI for HT29 colon; item: COc1cc(C2SCC(=O)N2c2ccc(Oc3ccc(Cl)cc3)c(Cl)c2)cc(OC)c1OC (stereo not drawn)
Outgoing: 33.7 µM

Provenance of the data: PubChem BioAssay (NCI)
